I'd be grateful if you could share measured protein stability index for these entries.
B1: CIB1 (parent)
chain: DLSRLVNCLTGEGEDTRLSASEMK

Variants of: B1
run-description: protein stability index of a GFP-peptide fusion (GPS, HEK-293T) (PSI 1-6); higher = more stable;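 also: lentivirally expressed fusions sorted by FACS into six bins by GFP to DsRed ratio, PSI derived from sequencing read proportions per bin multiplied by bin number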
test-context: c terminus: a fixed tail appended
Keep it simple and answer with nothing but the number.

[Q] Dear colleague, I am looking for the recorded protein stability index of the following variant: V6M
[A] 3.61

[Q] Dear colleague, I am looking for the recorded protein stability index of the following variant: T10E
[A] 3.39

[Q] Dear colleague, I am looking for the recorded protein stability index of the following variant: E12M
[A] 3.22

[Q] Dear colleague, I am looking for the recorded protein stability index of the following variant: S21A
[A] 2.1

[Q] Dear colleague, I am looking for the recorded protein stability index of the following variant: T16Y
[A] 2.49
